Biological target: PIK3C3 lipid kinase (Homo sapiens, UniProt Q8NEB9)
Sequence (Q8NEB9 whole entry): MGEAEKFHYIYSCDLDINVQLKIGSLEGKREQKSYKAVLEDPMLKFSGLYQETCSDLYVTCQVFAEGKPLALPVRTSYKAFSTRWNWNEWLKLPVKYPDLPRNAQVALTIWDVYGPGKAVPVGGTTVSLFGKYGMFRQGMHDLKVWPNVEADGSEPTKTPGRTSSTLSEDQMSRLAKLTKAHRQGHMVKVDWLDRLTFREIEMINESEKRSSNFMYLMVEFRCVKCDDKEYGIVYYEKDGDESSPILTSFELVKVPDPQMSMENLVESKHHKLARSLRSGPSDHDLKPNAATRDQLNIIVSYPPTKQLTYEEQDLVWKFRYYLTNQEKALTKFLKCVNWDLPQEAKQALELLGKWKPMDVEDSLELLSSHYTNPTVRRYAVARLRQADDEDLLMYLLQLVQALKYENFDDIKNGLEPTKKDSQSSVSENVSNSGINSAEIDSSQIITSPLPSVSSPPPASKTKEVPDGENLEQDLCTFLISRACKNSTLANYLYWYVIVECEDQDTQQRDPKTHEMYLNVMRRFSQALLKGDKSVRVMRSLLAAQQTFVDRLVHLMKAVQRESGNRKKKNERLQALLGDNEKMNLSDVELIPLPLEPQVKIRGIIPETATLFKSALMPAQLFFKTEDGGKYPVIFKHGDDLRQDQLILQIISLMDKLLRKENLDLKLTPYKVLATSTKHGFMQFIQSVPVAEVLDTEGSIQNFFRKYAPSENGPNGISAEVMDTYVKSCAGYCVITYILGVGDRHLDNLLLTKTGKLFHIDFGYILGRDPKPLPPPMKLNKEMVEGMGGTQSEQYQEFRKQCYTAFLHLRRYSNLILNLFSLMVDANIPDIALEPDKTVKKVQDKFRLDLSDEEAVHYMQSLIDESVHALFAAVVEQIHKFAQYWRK
Experiment: Biochemical Vps34 lipid kinase assay (ADP-Glo)
Details: serial dilution 10 μM to 0.3 nM; 20 μM ATP; pIC50 = -log IC50 (M)
Method: A non-radiometric kinase assay (ADP-Glo™ Assay, Promega, Madison, Wi, USA) was used for measuring the kinase activity of the PIK3C3 lipid kinase. All kinase assays were performed in 96-well half-area microtiter plates in a 25 μl reaction volume. […] The reaction cocktails were incubated at 30° C. for 60 minutes. […] Signal was determined with a microplate luminescence reader (Victor, Perkin Elmer). […]
measure.name: IC50 (M)

CNC(=O)c1ccc2cc1CN1CCN(CC1)CC(=O)NCCCNc1ncc(cn1)-c1ccnc(c1)N2 [Compound 9]    1.66e-07

1 = O=C1CN2CC3CCC2CN3Cc2cccc(c2)Nc2cc(ccn2)-c2cnc(nc2)NCCCN1 (single isomer, unassigned) [Compound 25]
2 = CC1CN2CC(=O)NCCCNc3ncc(cn3)-c3ccnc(c3)Nc3cccc(c3)CN1C(C)C2 (centres unmarked) [Compound 34]
Task: Compare IC50: is it lower for 1 or for 2 ? Pick one; state its label.
Output: 2

a = O=C1CN2CCN(Cc3cccc(c3)Nc3cc(ccn3)-c3cnc(nc3)NCCCN1)C(CO)C2 (single isomer, unassigned) [Compound 7]
b = O=C1NCCC2CC(O)CN2c2ncc(cn2)-c2ccnc(c2)Nc2cccc(c2F)CN2CCN(CC2)C12CC2 (centres unmarked) [Compound 53]
c = O=C1NCCC2CC(O)CN2c2ncc(cn2)-c2ccnc(c2)Nc2cccc(c2)CN2CCN(CC2)C12CC2 (centres unmarked) [Compound 56]
Task: Hey, quick one: sort these by IC50, low to high? Please list each label once, in the requested order.
Output: a, b, c

I = O=C1CN2CCN(CC2)Cc2cccc(c2)Nc2cc(ccn2)-c2cnc(nc2)N2CC(O)CC2CCN1 (centres unmarked) [Compound 54]
II = NC1CC2CCNC(=O)CN3CCN(CC3)Cc3cccc(c3)Nc3cc(ccn3)-c3cnc(nc3)N2C1 (centres unmarked) [Compound 84]
Task: Compare IC50: is it lower for I or for II ? Pick one; state its label.
Output: II

P = NC(=O)C1CCNC(=O)CN2CCN(CC2)Cc2cccc(c2)Nc2cc(ccn2)-c2cnc(nc2)N1 (centres unmarked) [Compound 121]
Q = COCC1C(=O)NCCCNc2ncc(cn2)-c2ccnc(c2)Nc2cccc(c2)CN2CCN1CC2 (single isomer, unassigned) [Compound 6]
Task: Of the two listed items, P and Q , which carries the larger IC50 figure? Pick one; state its label.
Output: P
(P: 2.63e-06 M, Q: 7.59e-07 M)

I = O=C1CN2CCN(CC2)Cc2cccc(c2)Nc2cc(ccn2)-c2cnc(nc2)NC(C(=O)O)CCN1 (centres unmarked) [Compound 117]
II = CC1CN2CCN1Cc1cccc(c1)Nc1cc(ccn1)-c1cnc(nc1)NCCCNC(=O)C2 (centres unmarked) [Compound 40]
III = CC1c2cccc(c2)Nc2cc(ccn2)-c2cnc(nc2)NCCCNC(=O)C2(CC2)N2CCN1CC2 (single isomer, unassigned) [Compound 23]
IV = O=C1CN2CCN(Cc3cccc(c3)Nc3cc(ccn3)-c3cnc(nc3)NCCCN1)C1(CC1)C2 [Compound 27]
Task: Hey, quick one: sort these by IC50, low to high? Please list each label once, in the requested order.
Output: IV, I, II, III
(IV: 2.57e-08 M, I: 1.41e-07 M, II: 2.63e-07 M, III: 1.74e-06 M)

1 = O=C1NCCCNc2ncc(cn2)-c2ccnc(c2)Nc2cccc(c2)CN2CCN(CC2)C1CO (single isomer, unassigned) [Compound 3]
2 = O=C1CN2CCN(CC2)Cc2cccc(c2F)Nc2cc(ccn2)-c2cnc(nc2)NCCCN1 [Compound 1]
3 = NCCCOCC1CN2CCN1Cc1cccc(c1)Nc1cc(ccn1)-c1cnc(nc1)NCCCNC(=O)C2 (centres unmarked) [Compound 114]
Task: Hey, quick one: sort these by IC50, low to high? Please list each label once, in the requested order.
Output: 2, 1, 3
(2: 4.9e-08 M, 1: 2.29e-07 M, 3: 5.13e-07 M)

a = O=C1CN2CCN(CC2)Cc2cccc(c2)Nc2cc(ccn2)-c2cnc(nc2)NC(C(=O)O)CCN1 (centres unmarked) [Compound 120]
b = O=C1CN2CCC(CC2)Nc2cccc(c2)Nc2cc(ccn2)-c2cnc(nc2)NCCCN1 [Compound 106]
Task: Compare IC50: is it lower for a or for b ? Pick one; state its label.
Output: a
(a: 2.95e-07 M, b: 5.89e-07 M)

====

Target: EF2K (Homo sapiens)
Construct: host or cells: LN-229 glioblastoma cell lysate
Sequence (O00418 1-725): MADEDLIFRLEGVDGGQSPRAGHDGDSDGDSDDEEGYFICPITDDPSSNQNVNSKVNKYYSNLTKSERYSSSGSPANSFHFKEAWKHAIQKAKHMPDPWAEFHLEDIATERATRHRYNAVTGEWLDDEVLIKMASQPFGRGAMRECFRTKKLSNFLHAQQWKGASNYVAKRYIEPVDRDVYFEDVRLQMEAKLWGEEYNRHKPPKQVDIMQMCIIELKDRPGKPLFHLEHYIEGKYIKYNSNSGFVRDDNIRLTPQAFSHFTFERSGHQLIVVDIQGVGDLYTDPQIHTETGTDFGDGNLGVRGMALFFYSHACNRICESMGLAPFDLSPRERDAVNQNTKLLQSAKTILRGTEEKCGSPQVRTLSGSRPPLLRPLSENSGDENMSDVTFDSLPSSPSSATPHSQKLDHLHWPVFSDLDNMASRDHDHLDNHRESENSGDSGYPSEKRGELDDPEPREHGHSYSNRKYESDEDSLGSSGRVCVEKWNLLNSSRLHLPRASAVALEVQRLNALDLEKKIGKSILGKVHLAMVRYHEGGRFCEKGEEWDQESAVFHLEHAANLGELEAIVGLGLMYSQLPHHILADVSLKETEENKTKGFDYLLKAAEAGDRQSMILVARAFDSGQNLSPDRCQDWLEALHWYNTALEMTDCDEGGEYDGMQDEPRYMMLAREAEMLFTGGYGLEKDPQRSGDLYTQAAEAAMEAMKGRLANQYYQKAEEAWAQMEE
Experiment: Biochemical EF2K lysate-based kinase assay (AlphaLISA p-eEF2 Thr56)
Conditions: LN-229 cell lysates, 10 mM ATP, pH 6.6; pIC50 = -log IC50 (M); read-out: eEF2K_C_alphalisa pIC50 (converted)
measure.name: IC50 (M)

Reference set (3 entries):
CC1CN2CC(=O)NCCCNc3ncc(cn3)-c3ccnc(c3)Nc3cccc(c3)CN1C(C)C2 (centres unmarked)    3.31e-07
O=C1CN2CCN(CC2)Cc2cccc(c2)Nc2cc(ccn2)-c2cnc(nc2)NC(C(=O)O)CCN1 (centres unmarked) [Compound 119]    2.75e-07
CNC(=O)C1CCNC(=O)CN2CCN(CC2)Cc2cccc(c2)Nc2cc(ccn2)-c2cnc(nc2)N1 (single isomer, unassigned) [Compound 124]    3.98e-07

P = CC1CN2Cc3cccc(c3)Nc3cc(ccn3)-c3cnc(nc3)NCCCNC(=O)CN1CC2C (centres unmarked)
Q = CC1CN2CCN1Cc1cccc(c1)Nc1cc(ccn1)-c1cnc(nc1)NCCCNC(=O)C2 (centres unmarked) [Compound 36]
Task: Compare IC50: is it lower for P or for Q ? Pick one; state its label.
Output: Q

====

Molecular target: PIK3C3 lipid kinase (Homo sapiens, UniProt Q8NEB9)
Assay: Biochemical Vps34 lipid kinase assay (ADP-Glo)
Conditions: 1 h, single dose 1 μM; residual activity compared to control (DMSO); 20 μM ATP; read-out: VPS34_1microM_%ofcntrl
measure.name: remaining activity at 1 µM (%)

NC1CC2CCNC(=O)CN3CCN(CC3)Cc3cccc(c3)Nc3cc(ccn3)-c3cnc(nc3)N2C1 (stereo not drawn)    21.6
O=C1CN2CCN(CC2)Cc2cccc(c2)Nc2cc(ccn2)-c2ccc(nc2)NCCN1    72.6
CN1CCCNC(=O)CN2CCN(CC2)Cc2cccc(c2)Nc2cc(ccn2)-c2ccc1nc2    50.8

P = CC1CN2CC(=O)NCCCNc3ncc(cn3)-c3ccnc(c3)Nc3cccc(c3)CN1C(C)C2 (stereo not drawn)
Q = CNC(=O)c1ccc2cc1CN1CCN(CC1)CC(=O)NCCCNc1ncc(cn1)-c1ccnc(c1)N2
R = O=C1CN2CCC(CC2)Cc2cccc(c2)Nc2cc(ccn2)-c2ccc(nc2)NCCCN1
S = O=C1CN2CCN(Cc3cccc(c3)Nc3cc(ccn3)-c3cnc(nc3)NCCCN1)C(CO)C2 (single isomer, unassigned)
Task: Put the entries in order of remaining activity at 1 µM, starting with the largest number. Please list each label once, in the requested order.
Output: R, P, S, Q
(R: 46.4%, P: 23.5%, S: 12.5%, Q: 7.1%)

P = O=C1CN2CCN(CC2)Cc2cccc(c2)Nc2cc(ccn2)-c2ccc(nc2)N2CCCC2CCN1 (single isomer, unassigned)
Q = NS(=O)(=O)NC1CC2CCNC(=O)CN3CCN(CC3)Cc3cccc(c3)Nc3cc(ccn3)-c3cnc(nc3)N2C1 (stereo not drawn)
Task: Compare remaining activity at 1 µM: is it lower for P or for Q ? Pick one; state its label.
Output: P
(P: 40%, Q: 68%)

I = O=C1NCCCNc2ncc(cn2)-c2ccnc(c2)Nc2cccc(c2)NC2CCN(CC2)C12CC2
II = CC1CN2CCN1Cc1cccc(c1)Nc1cc(ccn1)-c1cnc(nc1)N1CCCC1CCNC(=O)C2 (stereo not drawn)
III = COCCN1CCN(C)C(=O)CN2CCN(CC2)Cc2cccc(c2)Nc2cc(ccn2)-c2cnc1nc2
Task: Put the entries in order of remaining activity at 1 µM, starting with the largest number. Please list each label once, in the requested order.
Output: III, II, I
(III: 67%, II: 44.1%, I: 14.9%)

1 = O=C1CNCCNc2ccc(cn2)-c2ccnc(c2)Nc2cccc(c2)CN2CCN1CC2
2 = O=C1CN2CCN(CC2)Cc2cccc(c2)Nc2cc(ccn2)-c2ccc(nc2)NCCCN1
3 = O=C1NCCCNc2ncc(cn2)-c2ccnc(c2)Nc2cccc(c2)CN2CCN(CC2)C1CO (single isomer, unassigned)
Task: Hey, quick one: sort these by remaining activity at 1 µM, low to high? Please list each label once, in the requested order.
Output: 3, 2, 1
(3: 15.3%, 2: 34%, 1: 53.7%)
